Experiment summary: Exposure during ipGTT in ob/ob mice
Type: in vivo
Condition: sc
Where a SMILES comes first, the peptide text is derived from it. [ ]: non-standard residue; d: D form. The star is where a group is joined. ξ: configuration not given here. Ala(6-(2-MePh)pyridin-3-yl) = Cc1ccccc1-c1ccc(C[C@H](N)C(=O)O)cn1; Phe(4-(2-Et-4-HO-Ph)) = CCc1cc(O)ccc1-c1ccc(C[C@H](N)C(=O)O)cc1; Bip(2'-Et-4'-OMe) = CCc1cc(OC)ccc1-c1ccc(C[C@H](N)C(=O)O)cc1; αMePhe(2-F) = C[C@](N)(Cc1ccccc1F)C(=O)O; ξαMePhe(2-F) = CC(N)(Cc1ccccc1F)C(=O)O; ξαMeP = CC1(C(=O)O)CCCN1; Aib = CC(C)(N)C(=O)O; Moc = COC(=O)*
Listed next: entries and their corresponding Exposure/dose during ipGTT in ob/ob mice.
Report as a plain number; the unit nM * h/nmol/kg is understood.

CCc1cc(OC)ccc1-c1ccc(C[C@H](NC(=O)[C@H](CC(=O)O)NC(=O)[C@H](CO)NC(=O)[C@@H](NC(=O)[C@](C)(Cc2ccccc2F)NC(=O)[C@@H](NC(=O)CNC(=O)[C@H](CCC(=O)O)NC(=O)C(C)(C)NC(=O)[C@@H](N)Cc2c[nH]cn2)[C@@H](C)O)[C@@H](C)O)C(=O)N[C@@H](Cc2ccc(-c3ccccc3C)nc2)C(N)=O)cc1 [SEQ ID NO: 9] (H-H[Aib]EGT[αMePhe(2-F)]TSD[Bip(2'-Et-4'-OMe)][Ala(6-(2-MePh)pyridin-3-yl)]-NH2)
18
CCc1cc(O)ccc1-c1ccc(C[C@H](NC(=O)[C@H](CC(=O)O)NC(=O)[C@H](CO)NC(=O)[C@@H](NC(=O)C(C)(Cc2ccccc2F)NC(=O)[C@@H](NC(=O)CNC(=O)[C@H](CCC(=O)O)NC(=O)C2(C)CCCN2C(=O)[C@H](Cc2c[nH]cn2)NC(=O)OC)[C@@H](C)O)[C@@H](C)O)C(=O)N[C@@H](Cc2ccc(-c3ccccc3C)nc2)C(N)=O)cc1 (stereo partly drawn) [SEQ ID NO: 158] (Moc-H[ξαMeP]EGT[ξαMePhe(2-F)]TSD[Phe(4-(2-Et-4-HO-Ph))][Ala(6-(2-MePh)pyridin-3-yl)]-NH2)
11

Entry CCc1cc(OC)ccc1-c1ccc(C[C@H](NC(=O)[C@H](CC(=O)O)NC(=O)[C@H](CO)NC(=O)[C@@H](NC(=O)C(C)(Cc2ccccc2F)NC(=O)[C@@H](NC(=O)CNC(=O)[C@H](CCC(=O)O)NC(=O)C2(C)CCCN2C(=O)[C@@H](N)Cc2c[nH]cn2)[C@@H](C)O)[C@@H](C)O)C(=O)N[C@@H](Cc2ccc(-c3ccccc3C)nc2)C(N)=O)cc1 (stereo partly drawn) [SEQ ID NO: 118] (H-H[ξαMeP]EGT[ξαMePhe(2-F)]TSD[Bip(2'-Et-4'-OMe)][Ala(6-(2-MePh)pyridin-3-yl)]-NH2) ; Exposure/dose during ipGTT in ob/ob mice = 4.4
